- System: Sonic hedgehog protein (Shh)
- protocol: small-molecule binders of Shh protein, primary screen, biochemical, small-molecule microarray, 635/667 nm fluorescence (AID 1151);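 also: Shh protein binding to compounds spotted on small-molecule microarray slides; score combines spot fluorescence intensity with signal-to-noise across triplicate slides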
- protocol conditions: small-molecule microarray binding, 635 nm fluorescence; higher = more signal
Known composite z-score of a selection of molecules
Simply state the number, no unit and no words.

molecule	composite z-score
Cc1ccc(S[C@]2(C(=O)O)CC(=O)N(Cc3ccccc3Cl)[C@@H]2c2ccc(CO)cc2)cc1	-0.259
COc1cc(CO)cc(I)c1O[C@H]1C=C(C(=O)NCCO)C[C@@H](N(Cc2ccc(F)cc2)C(=O)C2CCCO2)[C@@H]1O (some centres undefined)	0.399
COCCCNC(=O)[C@]1(CCC(=O)OC(C)(C)C)N=C(c2ccc(OCCCO)cc2)O[C@@H]1c1ccccc1	-1.52

Turning to the following molecule.
Query block: composite z-score for CCC[C@@H]1C[C@@]1(CCC)[C@@H](NP(=O)(c1ccccc1)c1ccccc1)c1ccc(Cl)cc1 ?
Result block: -0.447

###

Known composite z-score of a selection of molecules
- protocol: binders of probe aHhip on microarray, primary screen, stem cell growth factor project, biochemical, small-molecule microarray, fluorescence 635/667 (AID 1087);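 also: score merges spot fluorescence at 667nm with spot signal to noise ratio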
- protocol conditions: higher = more signal
Simply state the number, no unit and no words.

Observe how each entry below is paired with its result.
molecule	composite z-score
COCCOC(=O)N1C(=O)[C@@]2(c3cc(C#Cc4ccc(OC)cc4)ccc31)[C@H](C(=O)N1CCCCCCC1)[C@H]1C(=O)O[C@H](c3ccccc3)[C@H](c3ccccc3)N1[C@@H]2c1ccc(O)cc1	0.615
CCCCC(=C=CC[C@@H](O)c1ccc(OCCO)cc1)C[C@@H](O)COCc1ccccc1	0.0743
CN(C)CCCNC(=O)[C@@]1(c2ccc([N+](=O)[O-])cc2)CC(=O)N(CC23CC4CC(CC(C4)C2)C3)[C@@H]1c1ccc(CO)cc1	0.635

Query block: composite z-score for COCCOC(=O)N1C(=O)[C@@]2(c3cc(C#CC4(O)CCCCCC4)ccc31)[C@H](c1ccccc1OCCO)N1[C@H](c3ccccc3)[C@H](c3ccccc3)OC(=O)[C@H]1[C@@H]2C(N)=O ?
Result block: -0.0672

Query block: composite z-score for C=CC1c2cc(O)c(OC)cc2CCN1Cc1sc2ccccc2c1Cl (configuration not stated) ?
Result block: -0.0237

Query block: composite z-score for COCCOC(=O)N1C(=O)[C@@]2(c3cc(C#CC4=CCCCC4)ccc31)[C@H](C(=O)N1CCN(c3ncccn3)CC1)[C@H]1C(=O)O[C@H](c3ccccc3)[C@H](c3ccccc3)N1[C@@H]2c1ccc(O)cc1 ?
Result block: 0.208

Query block: composite z-score for CC(C)CN1C(=O)[C@@]2(Cc3ccccc31)c1ccccc1C(=O)N(Cc1ccccc1C(F)(F)F)[C@H]2c1ccc(CO)cc1 ?
Result block: -0.374

###

- protocol: inhibitors of hydroxyurea-induced Chk1 phosphorylation, primary screen, imaging, HeLa, phospho-Chk1 antibody, percent positive cells (AID 1186)
- protocol conditions: hydroxyurea-induced phospho-Chk1 immunofluorescence imaging, higher = more signal
measured quantity: z-score
Simply state the number, no unit and no words.

Observe how each entry below is paired with its result.
compound	measured quantity	result number
COCCCNC(=O)[C@]1(Cc2ccccc2N=[N+]=[N-])N=C(c2ccc(OCCCO)cc2)O[C@@H]1c1ccccc1N=[N+]=[N-]	z-score	-0.553
CCCCC(=C=CC[C@@H](O)c1ccc(OCCO)cc1)C[C@@H](O)COCc1ccccc1	z-score	-0.263

Query block: z-score for [N-]=[N+]=Nc1ccccc1C[C@@]1(C(=O)O)N=C(c2ccc(OCCCO)cc2)O[C@@H]1c1ccccc1 ?
Result block: 0.167

Query block: z-score for C[C@H]1C2=C3C(CC[C@H]4C(OCc5ccc(F)cc5C(F)(F)F)OC[C@](C)([C@@H]34)N(C(=O)OC(C)(C)C)C2)C2COC(=O)OCC21 (some centres not stated) ?
Result block: 0.671

Query block: z-score for C=CCOC(=O)[C@@H]1[C@H]2C(=O)O[C@H](c3ccccc3)[C@H](c3ccccc3)N2[C@H](c2ccc(OCCOC(=O)[C@H]3C[C@H]4C(=O)N[C@@H](CCCCNC(C)=O)C(=O)N4[C@H]3c3cccc(OCCO)c3)cc2)[C@@]12C(=O)Nc1ccc(I)cc12 ?
Result block: -0.398
